Target: BPTF PHD reader domain (human, UniProt Q12830 2865-3033)
Test: ITC; 19 injections of histone peptide (0.3–1.2 mM) into reader protein (22–100 µM), 298.15 K, same buffer as used in size exclusion chromatography, one-site fit, 3–5 repeats
Details: both partners purified
Ends that are not written are not given here.
Assay Metric: Kd
Write your answer as a measured quantity: the number, then the unit.

Query (binder): ARTCQTARKS (not fully specified (residue 4), histone H3, residues 1-10, printed as ART(Kme3/KCme3)QTARKS; position 4 is a cysteine alkylated to trimethylthialysine; The letter C at position 4 stands for the alkylated cysteine (trimethylthialysine), not a free cysteine; also called 1–10 H3KC4me3) [10-mer histone H3 peptide bearing trimethylthialysine at position 4 (H3KC4me3)] ; field requested: Kd
3.8 µM
